- ASSAYED TARGET: Solute carrier family 2, facilitated glucose transporter member 1 (Homo sapiens) (UniProt P11166)
- Sequence (P11166 whole entry): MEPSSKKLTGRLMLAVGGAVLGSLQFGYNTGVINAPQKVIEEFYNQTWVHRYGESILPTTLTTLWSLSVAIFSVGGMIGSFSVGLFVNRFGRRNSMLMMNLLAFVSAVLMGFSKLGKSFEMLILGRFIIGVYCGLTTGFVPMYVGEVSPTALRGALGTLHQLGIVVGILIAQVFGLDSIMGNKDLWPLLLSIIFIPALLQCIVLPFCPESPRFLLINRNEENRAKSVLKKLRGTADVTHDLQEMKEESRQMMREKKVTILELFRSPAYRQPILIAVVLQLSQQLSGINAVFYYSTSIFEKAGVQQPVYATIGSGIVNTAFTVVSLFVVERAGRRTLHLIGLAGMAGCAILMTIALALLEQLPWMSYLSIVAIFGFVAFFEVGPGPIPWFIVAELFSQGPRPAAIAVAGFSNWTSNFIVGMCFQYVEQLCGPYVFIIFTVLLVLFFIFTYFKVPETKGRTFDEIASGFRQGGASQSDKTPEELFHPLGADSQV
- PROTOCOL SUMMARY: ST_JUDE_LEISH: Cytotoxicity at 2uM final concentration against transgenic Leishmania Mexicana promastigotes LmGLUT1 that are glucose transport deficient and complemented with the human glucose transporter GLUT1. Activity is measured by DNA content using SYBR green in vitro
- Type: functional
# key: entry, value: inhibition
Kindly write the number and append the unit.

Cc1ccc(-c2csc(C)n2)c(C)c1: 1.21%
COc1ccc2c(=O)c(I)c(C)[nH]c2c1: -1.2%
CC1(C)NC(N)=NC(=N)N1OCCOc1cccc(C(F)(F)F)c1: 1.04%
CCCCN(CCCC)CCCN(CCCN(CCCC)CCCC)c1cc(C)nc(Nc2ccc3cc(Br)ccc3c2)n1: 12%

Problem: Look up inhibition: Cc1cc(NCCC(=O)Nc2ccccc2)nc(NCCOc2ccccc2)n1
Result: -0.01%

Problem: Look up inhibition: COc1ccc(-c2ccc(NC(=O)c3ccc(Cl)cc3)cc2)cc1CN1CCCN(C)CC1
Result: 5.26%

Problem: Look up inhibition: CN1CCC(N2CCN(Cc3ccc(-c4ccc(-c5nc6cc(F)ccc6[nH]5)s4)cc3)CC2)CC1
Result: 2.75%

Problem: Look up inhibition: S=C(Nc1cccc(Cl)c1)NC1CCN(c2ccnc3cc(Cl)ccc23)C1 (stereo not given)
Result: 13.2%

###

- ASSAYED TARGET: Solute carrier family 2, facilitated glucose transporter member 1 (Homo sapiens) (UniProt P11166)
- PROTOCOL SUMMARY: ST_JUDE_LEISH: Cytotoxicity at 2uM final concentration against transgenic Leishmania Mexicana promastigotes LmGLUT1 that are glucose transport deficient and complemented with the human glucose transporter GLUT1. Activity is measured by DNA content using SYBR green in vitro
- Type: functional
ENDPOINT LABEL: inhibition (%)
# unit: % | format: bare number

Below, 4 molecules whose answers are already recorded.
C(=NN=c1cc(-c2ccccc2)[nH]c2ccccc12)c1cccnc1: 15.1
COc1ccc(O)c(C(=O)c2cc(C#N)c(=O)n(-c3ccc(Oc4ccccc4)cc3)c2)c1: 10.2
COc1cccc2cc(C(=O)N[C@@H](CC(C)C)C(=O)N[C@H](/C=N/NC(=O)Cc3cccnc3)CCc3ccccc3)oc12: 3.03
COc1ccc2nccc([C@@H](O)CN3CCC(NC(=O)C(c4cc5ccccc5o4)N4CCN(Cc5ccccc5)CC4)CC3)c2c1 (some centres undefined): 3.8

Problem: Look up inhibition: O=C(Nc1ccc(-c2cccc(-c3nc4cc(F)ccc4[nH]3)c2)cc1)Nc1ccc(F)c(F)c1F
Result: 5.34

Problem: Look up inhibition: Cc1ccc(NC(=O)c2cc(Br)cc(N3CCCN(C)CC3)c2)cc1F
Result: -0.54

Problem: Look up inhibition: COc1cc2nc(N[C@@H](CO)c3ccccc3)nc(NCc3ccccc3)c2cc1OC
Result: 1.12

Problem: Look up inhibition: O=C(/C=C/c1ccc(Cl)c(Cl)c1)NCCC(CN1CCC(c2c[nH]c3ccccc23)CC1)c1ccccc1 (centres undefined)
Result: 2.74

Problem: Look up inhibition: Cc1cccc2c3c([nH]c12)C1(CCN(CCc2ccccc2)CC1)NC(C(=O)NCc1ccccc1)C3 (centres undefined)
Result: 4.58

###

# key: entry, value: inhibition
- ASSAYED TARGET: Glucose transporter (Leishmania mexicana) (UniProt O61059)
- PROTOCOL SUMMARY: ST_JUDE_LEISH: Cytotoxicity at 2uM final concentration against transgenic Leishmania Mexicana promastigotes LmGT2 that are glucose transport deficient and complemented with the L. Mexicana glucose transporter 2. Activity is measured by DNA content using SYBR green in vitro
- Assay type: functional
# unit: % | format: bare number

COc1ccccc1/C=C/C(=O)NC1CCC(CCN2CCc3ccc(-c4cc(C)no4)cc3CC2)CC1 (centres undefined): 9.56

Problem: Param readout= inhibition; system= Glucose transporter (Leishmania mexicana) (UniProt O61059); entry= COc1cc2c(c(Cl)c1OC)CCN(Cc1ccccc1)CC2c1ccc(C(N)=O)cc1 (centres undefined) ; returns value.
Result: 1.62

Problem: Param readout= inhibition; system= Glucose transporter (Leishmania mexicana) (UniProt O61059); entry= COc1cc(C2CCN(CCCCNC(=O)c3ccc(NC(=O)c4ccc(Cl)c(Cl)c4)cc3)CC2)ccc1OC(C)C ; returns value.
Result: 1.53

Problem: Param readout= inhibition; system= Glucose transporter (Leishmania mexicana) (UniProt O61059); entry= Cc1cccc2nc(-c3ccc(-c4cccc(NC(=O)NCc5ccccc5)c4)cc3)[nH]c12 ; returns value.
Result: 1.98

Problem: Param readout= inhibition; system= Glucose transporter (Leishmania mexicana) (UniProt O61059); entry= CC(C)(C)C(=O)Nc1c(-c2cc(=O)oc3cc4c(cc23)CCC4)oc2ccccc12 ; returns value.
Result: 5.42

Problem: Param readout= inhibition; system= Glucose transporter (Leishmania mexicana) (UniProt O61059); entry= Cc1cc(N)c2cc(NC(=O)c3cccc4ccccc34)ccc2n1 ; returns value.
Result: 0

Problem: Param readout= inhibition; system= Glucose transporter (Leishmania mexicana) (UniProt O61059); entry= OC(CNCc1ccccc1OCc1ccccc1)c1cccc(Cl)c1 (centres undefined) ; returns value.
Result: 5.2

Problem: Param readout= inhibition; system= Glucose transporter (Leishmania mexicana) (UniProt O61059); entry= N#Cc1ccc(C(=O)Nc2cc(-c3cccc(O)c3)cc3[nH]ncc23)cc1 ; returns value.
Result: 0.89

Problem: Param readout= inhibition; system= Glucose transporter (Leishmania mexicana) (UniProt O61059); entry= O=C(/C=C/c1ccc(Cl)c(Cl)c1)NCCCCCN1CCC(NC(=O)Nc2ccc(Cl)cc2Cl)CC1 ; returns value.
Result: -2.38

###

- ASSAYED TARGET: Glucose transporter (Leishmania mexicana) (UniProt O61059)
- PROTOCOL SUMMARY: ST_JUDE_LEISH: Cytotoxicity at 2uM final concentration against transgenic Leishmania Mexicana promastigotes LmGT2 that are glucose transport deficient and complemented with the L. Mexicana glucose transporter 2. Activity is measured by DNA content using SYBR green in vitro
- Type: functional
ENDPOINT LABEL: inhibition

Below, 8 compounds whose answers are already recorded.
CCOc1cc(C(=O)NC2CCN(Cc3ccccc3)C2)ccc1-c1nc2cc(Cl)ccc2[nH]1 (configuration not stated): 6.92%
Cc1cccc2nc(-c3ccc(-c4cccc(CNCCNC(=O)c5ccnn5C)c4)s3)[nH]c12: 3.87%
COCCN1CCC(N(Cc2ccc(-c3ccc(OC(F)(F)F)cc3)cc2)C(=O)Cn2c(CCc3cccc(F)c3F)cc(=O)c3ccccc32)CC1: 4.4%
Cc1ccc(/C=C/C(=O)NCCCCCN2CCN(C(=O)Nc3ccc(Cl)c(C(F)(F)F)c3)CC2)cc1: 0.88%
CC1CN(Cc2ccccc2)CCN1c1ccc(NC(=O)c2ccc(F)cc2)cc1 (configuration not stated): -3.4%
Cc1cc(N[C@@H](Cc2ccccc2)C(=O)NCc2cccc(F)c2)nc(NCC2CCCCC2)n1: -1.9%
COc1c(C2CCN(CCCCNC(=O)c3ccc(-c4ccc(Cl)cc4)cc3)CC2)ccc2c1C(C)(C)CCC2(C)C: -2.13%
CCN(CC)CCCCNc1cc(-c2[nH]c(-c3c(Cl)cccc3Cl)nc2-c2ccc3cc(OC)ccc3c2)ccn1: -0.83%

Problem: Look up inhibition: Cc1ccc(O)cc1Nc1ccnc2cc(-c3ccccc3)ccc12
Result: 7.72%

Problem: Look up inhibition: O=C(C=Cc1ccc(-c2nc3ccccc3[nH]2)cc1)NC1CCN(Cc2ccccc2)CC1
Result: 5.3%

Problem: Look up inhibition: O=C(Nc1cccc(C(F)(F)F)c1)c1cccc2nc(C(F)(F)F)[nH]c12
Result: 15%

Problem: Look up inhibition: COc1cncc(/C=C/c2cncc(C(=O)NCCc3ccc(Cl)cc3Cl)c2)c1
Result: 3.94%

Problem: Look up inhibition: COc1cc(C(=O)NC2CCN(Cc3ccccc3)CC2)ccc1-c1cc2cc(Cl)c(Cl)cc2[nH]1
Result: 2%

Problem: Look up inhibition: O=C(NCCCCN1CCC2c3cccc(O)c3CCC21)c1ccc(-c2ccccc2)cc1 (configuration not stated)
Result: 3.69%

###

- ASSAYED TARGET: Hexose transporter 1 (Plasmodium falciparum) (UniProt O97467)
- PROTOCOL SUMMARY: ST_JUDE_LEISH: Cytotoxicity at 2uM final concentration against transgenic Leishmania Mexicana promastigotes LmPfHT that are glucose transport deficient and complemented with the Plasmodium falciparum hexose transporter. Activity is measured by DNA content using SYBR green in vitro
- Format: functional
ENDPOINT LABEL: inhibition (%)
# unit: % | format: bare number

CCn1c(-c2nonc2N)nc2c(-c3cccc(NC(=O)Nc4ccc(Cl)cc4)c3)ncc(OCCCN)c21: 0.62
O=C(Nc1ccc(Cl)cc1)Nc1cccc(CCNCc2ccccc2)c1: 0.57
Cc1cc(NC(=O)c2cccs2)ccc1OC1CCN(Cc2ccc(C#N)cc2)C1 (stereo not given): 4.23
Nc1ccnc(N2CCC(CCOc3ccnc4cc(Cl)ccc34)CC2)c1: 22.8
Cc1sc(CNCCCNc2cc(=O)c3ccccc3[nH]2)c(I)c1C: 2.66
CCCC(CNCc1cccc(C)c1)CNc1cc(=O)c2ccccc2[nH]1 (stereo not given): 11.9

Problem: Look up inhibition: O=C(Nc1ccccc1C(F)(F)F)Nc1nn(Cc2c(F)cccc2Cl)cc1Br
Result: 4.7

Problem: Look up inhibition: Cc1ccc(NC(=O)c2ccc3ncccc3c2)cc1OC1CCN(CCC(C)C)C1 (stereo not given)
Result: 3.22

Problem: Look up inhibition: O=C(NCCCCN1CCC(c2ccc3c(c2O)CCCC3)CC1)c1ccc(-c2ccc(Cl)cc2)cc1
Result: 1.06

Problem: Look up inhibition: Oc1ccc(-c2nc3c(N4CCN(Cc5ccccc5)CC4)cccc3n2C2CCNCC2)cc1
Result: 7.64

Problem: Look up inhibition: COc1ccc(-c2cccc(CNC3CCN(CC4Cn5c(=O)ccc6ccc(F)c4c65)CC3)c2)cc1 (stereo not given)
Result: 10

Problem: Look up inhibition: O=C(Nc1cc(C(F)(F)F)cc(C(F)(F)F)c1)c1cccc([N+](=O)[O-])c1
Result: 4.66

Problem: Look up inhibition: NC(=O)c1cccc(Nc2nccc(Nc3ccc(Oc4ccc5ccccc5c4)cc3)n2)c1
Result: 4.45

Problem: Look up inhibition: Oc1cc(Nc2ccnc3cc(-c4cccc(CN5CCCCC5)c4)ccc23)c(F)cc1Cl
Result: 2.51

Problem: Look up inhibition: COc1ccc2ncc(C#N)c(CCN3CCC(NCc4cnc5c(c4)OCCO5)CC3)c2n1
Result: 15.9

Problem: Look up inhibition: CCOc1c(CNCCCNc2cc(O)c3ccccc3n2)cc(Br)cc1OC
Result: 4.37

Problem: Look up inhibition: Nc1nc(N)c2cc(S(=O)(=O)c3ccc4ccccc4c3)ccc2n1
Result: 18.4

Problem: Look up inhibition: O=C(/C=C/c1ccc(Cl)cc1)NCCCCCN1CCCC(C(=O)Nc2ccc(F)c(Cl)c2)C1 (stereo not given)
Result: 1.34

Problem: Look up inhibition: CCC(C)NS(=O)(=O)c1ccc2nc(Nc3ccc(C)cc3)n(C3CCCCC3C)c2c1 (stereo not given)
Result: 3.92

Problem: Look up inhibition: COc1ccc(C=CC(=O)Nc2ccc(N3CCCC3)cc2)cc1
Result: -1.95
